ASSAYED TARGET: Potassium voltage-gated channel subfamily KQT member 1 (Homo sapiens)
METHOD SUMMARY: inhibitors of human KCNQ1 channel, primary screen, cell-based, thallium flux, high-throughput (AID 2642);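 further: channel opened by potassium depolarization with thallium stimulus after 20 min compound exposure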
SETTINGS: CHO-K1 KCNQ1, FluxOR thallium flux fluorescence, at 10 µM
Out of some 310,000 compounds screened, about 3,900 (1.3%) were called active.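 How the source made its calls: active means compounds whose thallium flux B-score, printed positive for inhibition, exceeds three library SD while starting fluorescence stays within three; inactive means the rest.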 This is one part of a sample in which actives are shown more often than they occur.
Just give me one of these, please: y for active, n for inactive

Data request: Hello, I am checking results. What call was entered for `Fc1ccc2[nH]c3c(N4CCSCC4)ncnc3c2c1` ?
Data returned: y

Data request: I would be grateful if you could indicate the recorded call for `COc1cc(S(=O)(=O)N2CCOCC2)ccc1NC(=O)COc1ccc(N(C)S(=O)(=O)c2ccc(C)cc2)cc1` .
Data returned: y

Data request: Would you mind telling me which call this test gave `O=C(NC1CC1)C1=C[C@H](c2c[nH]c3ccccc23)C[C@H](OCc2ccc(CO)cc2)O1` ?
Data returned: n

Data request: Record request — test call for `COCOc1cc(O)c(C(=O)/C=C/c2ccc(OCOC)c(OCOC)c2)c(OCOC)c1`
Data returned: n

Data request: Just curious, what result did `O=C(c1ccc2c(c1)N(Cc1ccc(F)cc1)C(=O)c1ccccc1S2(=O)=O)N1CCN(c2ccccn2)CC1` get here?
Data returned: n

Data request: Status in this test for `O=C(COC(=O)c1ccc(S(=O)(=O)N2CCc3ccccc3C2)cc1)NC(=O)NCc1ccco1` ?
Data returned: n

Data request: # outcome recorded in this test, key = O=C(c1ccccc1)N1N=C(c2ccccc2O)CC1c1ccc(Br)cc1 (stereo not given)
Data returned: n

Data request: Test call, this molecule: `NC(=O)c1ncc(C(F)(F)F)cc1Oc1ccc(F)cc1`
Data returned: n

Data request: Could you kindly confirm the outcome this assay logged for `COc1ccc(NC(=O)CN2C(=O)COc3ccc(S(=O)(=O)N4CCOCC4)cc32)c(OC)c1` ?
Data returned: n

Data request: Assay outcome for COc1ccc(C2CC(c3cccs3)=NN2c2ccccc2)cc1 (stereo not given) : what was it?
Data returned: n
